The origin of these recorded values is paper PMC11249646.

# tested system: CIB1 and αIIb interaction (CIB1-GST : F-αIIb peptide) (Homo sapiens, UniProt Q99828)
# Construct: made in house; host or cells: BL-21 plus RIL cells (E. coli)
# Sequence (Q99828 whole entry): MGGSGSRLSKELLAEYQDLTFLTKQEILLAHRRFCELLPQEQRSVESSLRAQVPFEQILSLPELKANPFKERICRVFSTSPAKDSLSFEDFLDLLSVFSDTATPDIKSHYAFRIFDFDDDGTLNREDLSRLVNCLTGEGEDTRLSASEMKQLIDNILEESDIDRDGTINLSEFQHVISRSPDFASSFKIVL
# method: FP assay, 1536-well qHTS format (primary and confirmatory screen)
# Assay type: binding
# conditions: qHTS FP screen hits, Table S2; negative = inhibition
Overview of recorded Efficacy (%) for various compounds
experimental endpoint: Efficacy (%)

{"compound": "CCOC(=O)c1nn(-c2ccc(OC)cc2)c(=O)c2c(N)scc12 [NCGC00053250-03]", "experimental endpoint": "Efficacy (%)", "measured value": "-56%"}
{"compound": "COc1ccc(C(=O)Nc2nc(-c3ccccc3)cs2)c(NS(=O)(=O)c2ccc(C)cc2)c1.O=C(O)C(F)(F)F [NCGC00262390-01]", "experimental endpoint": "Efficacy (%)", "measured value": "-22%"}
{"compound": "CC(=O)NC(Cc1c[nH]c2ccccc(=O)c12)C(=O)O (centres unmarked) [NCGC00381382-01]", "experimental endpoint": "Efficacy (%)", "measured value": "-50%"}
{"compound": "CN(C(=O)CN(CCO)CC(=O)N(C)C(C)(C)Cc1ccccc1)C(C)(C)Cc1ccccc1 [NCGC00016382-07]", "experimental endpoint": "Efficacy (%)", "measured value": "-59%"}
{"compound": "CCOc1ccc(CCNC(C)=O)cc1OCC.O=C(O)C(F)(F)F [NCGC00241413-01]", "experimental endpoint": "Efficacy (%)", "measured value": "-45%"}
{"compound": "Nc1c(Cc2ccc(S(N)(=O)=O)cc2)c(-c2cccc(-c3ccccc3)c2)nn1-c1nc(C(=O)O)cs1.O=C(O)C(F)(F)F [NCGC00356752-02]", "experimental endpoint": "Efficacy (%)", "measured value": "-54%"}
{"compound": "Cc1cc(/N=N/c2ccc(S(=O)(=O)Nc3ccccn3)cc2)c(N)cc1O [NCGC00356068-01]", "experimental endpoint": "Efficacy (%)", "measured value": "-50%"}
{"compound": "Cc1c(C)n(Cc2ccc(-c3ccccc3C(=O)O)cc2)c2ccc(C(=O)N[C@@H](C)c3ccc([N+](=O)[O-])cc3)cc12 [NCGC00347955-01]", "experimental endpoint": "Efficacy (%)", "measured value": "-32%"}
{"compound": "O=C(O)c1csc(-n2nc(-c3ccc(F)c(F)c3)c3cccnc32)n1 [NCGC00356667-01]", "experimental endpoint": "Efficacy (%)", "measured value": "-32%"}
{"compound": "CC(C)=CCC[C@]1(C)C=Cc2c(O)c3c(c(CC=C(C)C)c2O1)O[C@]12C(=C[C@@H]4CC1C(C)(C)O[C@@]2(C/C=C(/C)C(=O)O)C4=O)C3=O [NCGC00485239-01]", "experimental endpoint": "Efficacy (%)", "measured value": "-34%"}
{"compound": "O=c1sc2ccccc2c(O)c1C1CC(c2ccc(-c3ccc(Br)cc3)cc2)Cc2ccccc21 (centres unmarked) [NCGC00262959-01]", "experimental endpoint": "Efficacy (%)", "measured value": "-38%"}
